Each entry below carries its recorded CC50 at 48 h.
- assay-name: Material cytotoxicity, CellTiter Glo
- Format: cell-based
- condition-description: human, MT-2 lymphoblastic cells; MT-2, 48 h, maximum concentration tested 1000 µg/mL

compound	CC50 at 48 h
CCOC(=O)CC(O)(CC(=O)OCC)C(=O)OCC [TEC, triethylcitrate]	~1000 µg/mL
O=C(O)C(O)C(O)C(=O)O (stereo not drawn) [Tartaric acid, L(+)-Tartaric acid]	> 1000 µg/mL
O=C(O)CC(O)(CC(=O)O)C(=O)O	> 1000 µg/mL
CC(O)C(=O)O (stereo not drawn) [Lactic acid, L(+)-Lactic acid]	> 1000 µg/mL
